system: SK-MEL-28; experiment: Cytotoxic activity against MEL-28 cell line; type: functional, cell-based; conditions: Homo sapiens
Rule for this label: True means IC50 is less than 2000 nM; False means IC50 is at least 2000 nM.

Solved cases (6 shown):
compound structure	assigned class
COc1cc(/C=C\c2ccc3nccnc3c2)cc(OC)c1OC	False
COc1cc(/C=C/c2ccc3nccnc3c2)cc(OC)c1OC	False
COc1cc(/C=C/c2ccc3ccccc3n2)cc(OC)c1OC	True
COc1cc(/C=C\c2ccc3nc(C)c(C)nc3c2)cc(OC)c1OC	False
COc1cc(/C=C/c2ccc3nc(C)c(C)nc3c2)cc(OC)c1OC	False
COc1cc(/C=C/c2cnc3ccccc3c2)cc(OC)c1OC	False

stdin: Hi there! Is IC50 for "COc1cc(/C=C\c2ccc3ncccc3c2)cc(OC)c1OC" below 2000 nM, do you know?
stdout: True

stdin: Hi there! Is IC50 for "COc1cc(/C=C\c2ccc3ccccc3n2)cc(OC)c1OC" below 2000 nM, do you know?
stdout: True

stdin: Hi there! Is IC50 for "COc1cc(/C=C\c2ccc3cccnc3c2)cc(OC)c1OC" below 2000 nM, do you know?
stdout: True

stdin: Hi there! Is IC50 for "COc1cc(/C=C\c2ccnc3ccccc23)cc(OC)c1OC" below 2000 nM, do you know?
stdout: False

stdin: Hi there! Is IC50 for "COc1cc(/C=C/c2ccc3cccnc3c2)cc(OC)c1OC" below 2000 nM, do you know?
stdout: True

stdin: Hi there! Is IC50 for "COc1cc(/C=C\c2cnc3ccccc3c2)cc(OC)c1OC" below 2000 nM, do you know?
stdout: True

###

tested on: HCT-116; assay: Cytotoxic activity against H116 cell line; assay type: functional, cell-based; details: Homo sapiens
readout label: IC50 (nM)
Write down the numeric answer in nM and omit the unit.

stdin: For the compound shown here, "COc1cc(/C=C/c2ccc3cccnc3c2)cc(OC)c1OC" , give the reported IC50.
stdout: 1580

stdin: For the compound shown here, "COc1cc(/C=C/c2ccc3ccccc3n2)cc(OC)c1OC" , give the reported IC50.
stdout: 398

stdin: For the compound shown here, "COc1cc(/C=C\c2ccc3ncccc3c2)cc(OC)c1OC" , give the reported IC50.
stdout: 31.6

stdin: For the compound shown here, "COc1cc(/C=C\c2ccc3ccccc3n2)cc(OC)c1OC" , give the reported IC50.
stdout: 316

stdin: For the compound shown here, "COc1ccc(/C=C\c2cc(OC)c(OC)c(OC)c2)cc1O" , give the reported IC50.
stdout: 3.16

###

test: Compound tested for inhibition of tubulin polymerization; assay type: functional
readout label: IC50
Note: state the figure and append the unit.

stdin: For the compound shown here, "COc1cc(/C=C\c2ccc3cccnc3c2)cc(OC)c1OC" , give the reported IC50.
stdout: 20 µM

###

system: HCT-116; assay: Cytotoxic activity against H116 cell line; format: functional, cell-based; conditions: Homo sapiens
Items are presented alongside their recorded pIC50.
Worth noting: pIC50 values are minus log10 of concentrations stated in mol/L.

Worked examples follow.
compound	pIC50
COc1cc(/C=C\c2ccnc3ccccc23)cc(OC)c1OC	5.10
COc1cc(/C=C\c2ccc3cccnc3c2)cc(OC)c1OC	6.80

stdin: For the compound shown here, "COc1cc(/C=C\c2ccc3nccnc3c2)cc(OC)c1OC" , give the reported pIC50.
stdout: 5.10

stdin: For the compound shown here, "COc1cc(/C=C\c2cnc3ccccc3c2)cc(OC)c1OC" , give the reported pIC50.
stdout: 6.40

stdin: For the compound shown here, COc1cc(/C=C\c2ccc3ccccc3c2)cc(OC)c1OC [NAPHTHYLCOMBRETASTATIN] , give the reported pIC50.
stdout: 7.80

Measured values drawn from ChEMBL document CHEMBL1146807 for this set.
